species on record: Homo sapiens; test: Binding affinity to human telomeric DNA sequence assessed as stabilization of G-quadruplex at 1 uM by thermal denaturation
// not met strictly below 0.6 °C in ΔTm; met otherwise

INSERT INTO measurements (smiles_notation, answer_label) VALUES
  ('NCCCC[C@H](N)C(=O)NCCNC(=O)c1ccc2c(c1)C(=O)c1ccc(C(=O)NCCNC(=O)[C@@H](N)CCCCN)cc1C2=O', 'met'),
  ('NCC(=O)Nc1ccc2c(c1)C(=O)c1ccc(NC(=O)CN)cc1C2=O', 'not met'),
  ('N=C(N)NCCC[C@H](N)C(=O)NCCNC(=O)c1ccc2c(c1)C(=O)c1ccc(C(=O)NCCNC(=O)[C@@H](N)CCCNC(=N)N)cc1C2=O', 'met'),
  ('NCCCC[C@H](N)C(=O)NCCNC(=O)c1ccc2c(c1)C(=O)c1cc(C(=O)NCCNC(=O)[C@@H](N)CCCCN)ccc1C2=O', 'met'),
  ('NCCC(=O)Nc1ccc2c(c1)C(=O)c1ccc(NC(=O)CCN)cc1C2=O', 'met'),
  ('C[C@@H](O)[C@H](N)C(=O)NCCNC(=O)c1ccc2c(c1)C(=O)c1ccc(C(=O)NCCNC(=O)[C@@H](N)[C@@H](C)O)cc1C2=O', 'not met');

// provenance: ChEMBL document CHEMBL1140074
